FYI, the data here is from PubChem BioAssay (NCI).

Quick reference for TGI among some molecules
System: SK-OV-3 ovarian
Assay: NCI tumour cell line growth inhibition, 48 h
endpoint.label: TGI

1. Cc1c(C(=O)CSc2nc3ccc([N+](=O)[O-])cc3[nH]2)c(=O)n(-c2ccccc2)n1C; > 100 µM
2. COCCOCN(C(=O)C1=CCC2(CC1)OCCO2)c1ccccc1I; > 50 µM
3. O=C1c2ccccc2-c2c1c1ccccc1c(=O)n2CCO; > 100 µM
4. CCOC(=O)c1cccc(=O)c(C(=O)OCC)c1; > 100 µM
5. Cn1nc(-c2ccccc2NC(=O)C(F)(F)F)c(=O)n(C)c1=S; > 100 µM
6. CN1CCN(c2nc3ccccc3nc2C(=O)c2ccc(Cl)cc2)CC1; > 100 µM
